Provenance of the data: PubChem BioAssay AID504672

Test system: S. cerevisiae tim10 strain, luminescence counterscreen
method: TIM10 strain luminescence inhibitors – S. cerevisiae, uHTS hits, counter-screen for tim23-1 inhibitor project, dose response (AID 504672);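 note: yeast grew roughly 22 hours at 25 °C before the luminescence read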
endpoint: pIC50
Worth noting: pIC50 values are minus log10 of concentrations stated in mol/L.

CC1(C)c2cc(Cl)ccc2-n2c1cc(O)c(-c1ccccc1)c2=O; 4.94
Cc1cc(C(=O)CCl)c(C)n1CCc1ccc(Cl)cc1; 4.96

Note: attention shifts to another entry.
Data request, read-out pIC50, for COC(=O)c1c(-c2ccc(S(C)(=O)=O)cc2)sc2ccc(OC)cc12
4.94

----------
Test system: S. cerevisiae tim10 strain, luminescence counterscreen
method: TIM10 strain luminescence inhibitors – S. cerevisiae, uHTS hits, counter-screen for tim23-1 inhibitor project, dose response (AID 504672);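 note: yeast grew roughly 22 hours at 25 °C before the luminescence read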
endpoint: IC50

Consider the worked cases shown below.
Cn1c(/C(C#N)=C/c2ccncc2)nc2ccccc21; 34.3 µM
O=C(Nc1ccccc1)C1C(c2ccccc2)C1(Cl)Cl (stereo not drawn); 20.6 µM

Data request, read-out IC50, for Cc1csc2nc(O)c(C(=O)NCCCc3ccccc3)c(=O)n12
8.44 µM

Data request, read-out IC50, for Cc1nc(-c2ccc(NC(=O)c3ccccc3)cc2)cs1
8.18 µM

----------
Let's look at some molecules and their measured pIC50.
System: S. cerevisiae tim10 strain, luminescence counterscreen
method: TIM10 strain luminescence inhibitors – S. cerevisiae, uHTS hits, counter-screen for tim23-1 inhibitor project, dose response (AID 504672);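 note: yeast grew roughly 22 hours at 25 °C before the luminescence read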
Worth noting: pIC50 values are minus log10 of concentrations stated in mol/L.

Consider the worked cases shown below.
CSC1=N/C(=C\c2ccc(C)cc2)C(=O)S1; 4.62
Cc1ccc(Nc2nc(Cl)c(C=O)s2)cc1Cl; 5.46
CCOC(=O)c1c(NC(=O)CSc2nnnn2-c2ccc(OC)cc2)sc(C)c1C; 4.94
O=C(c1cccnc1)C1Cc2ccccc2C1=O (stereo not given); 4.56

Data request, read-out pIC50, for CNC(=S)N/N=C/c1cc(Br)cc(Br)c1O
5.09

----------
Tested on: S. cerevisiae tim10 strain, luminescence counterscreen
method: TIM10 strain luminescence inhibitors – S. cerevisiae, uHTS hits, counter-screen for tim23-1 inhibitor project, dose response (AID 504672);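 note: yeast grew roughly 22 hours at 25 °C before the luminescence read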
endpoint: pIC50
Worth noting: pIC50 values are minus log10 of concentrations stated in mol/L.

Consider the worked cases shown below.
OCCOCCNc1ncnc2c1c(-c1ccccc1)cn2-c1ccccc1; 4.93
c1cnc2c(c1)ccc1cccnc12; 4.91

Data request, read-out pIC50, for CCOC(=O)c1c(-c2ccccc2)oc2ccc(O)cc12
4.99

Data request, read-out pIC50, for O=C(CSc1ccccc1)N/N=C/c1ccccc1O
4.96

Data request, read-out pIC50, for Cc1ccc(NC(=S)NC(=O)C2CC2)cc1Cl
5.05

Data request, read-out pIC50, for N#C/C(C(N)=O)=c1/ccc2c(c1)N1C3=C(CCCC3)CC3CCCCC31N=2 (stereo not drawn)
5.07

Data request, read-out pIC50, for COc1cccc(Nc2nc3ccc(OC)cc3s2)c1
4.95

Data request, read-out pIC50, for CCOC(=O)c1cnc(-n2nc(C)cc2C)nc1NCCc1ccccc1
5.08

----------
Tested on: S. cerevisiae tim10 strain, luminescence counterscreen
method: TIM10 strain luminescence inhibitors – S. cerevisiae, uHTS hits, counter-screen for tim23-1 inhibitor project, dose response (AID 504672);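 note: yeast grew roughly 22 hours at 25 °C before the luminescence read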
pIC50: −log10 of the molar value.
Label Y when pIC50 is at or above 5; anything below gets N.

O=C(CSc1cccc[n+]1[O-])CSc1cccc[n+]1[O-]; Y
O=c1oc(Cl)c(Cl)c2ccccc12; N
COn1c(=O)c(-c2cccs2)[n+]([O-])c2ccccc21; Y

Please indicate if the recorded pIC50 for CC1=CC(C)(C)N(C(=O)c2ccc(F)cc2)c2cc3c(cc21)OCO3 meets or exceeds 5.
Y

Please indicate if the recorded pIC50 for Cc1ccc(Nc2cc(C)c3ccc(O)cc3n2)cc1C meets or exceeds 5.
N

----------
System: S. cerevisiae tim10 strain, luminescence counterscreen
method: TIM10 strain luminescence inhibitors – S. cerevisiae, uHTS hits, counter-screen for tim23-1 inhibitor project, dose response (AID 504672);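 note: yeast grew roughly 22 hours at 25 °C before the luminescence read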
Let's look at some molecules and their measured IC50.

Consider the worked cases shown below.
O=[N+]([O-])c1ccc(N/N=C/c2cccc(O)c2)cc1; 6.08 µM
COc1cc2c3c(c1)C(C)CC(C)(C)N3C(=O)C2=O (stereo not given); 13.8 µM
O=C(N/N=C/c1coc2ccc(Cl)cc2c1=O)c1cc(O)cc(O)c1; 44.8 µM
O=C(N/N=C/C(Br)=C/c1ccccc1)c1cccs1; 8.5 µM
O=C(N/N=C/c1ccc(Br)s1)c1cccs1; 22.9 µM
COc1cccc2c1C(=O)C=C(C)C2=O; 13.2 µM
O=c1/c(=C/c2cccc3ccccc23)sc2ncnn12; 16.7 µM
COc1ccc(C(C[N+](=O)[O-])c2c(-c3ccccc3)cc3ccccn23)cc1OC (stereo not given); 21 µM

Data request, read-out IC50, for COc1cccc(NC(=O)c2ccccc2)c1
3.42 µM

Data request, read-out IC50, for Cc1cccc(N2C(=O)c3ccc(Br)cc3C2=O)n1
7.58 µM

----------
Tested on: S. cerevisiae tim10 strain, luminescence counterscreen
method: TIM10 strain luminescence inhibitors – S. cerevisiae, uHTS hits, counter-screen for tim23-1 inhibitor project, dose response (AID 504672);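 note: yeast grew roughly 22 hours at 25 °C before the luminescence read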
endpoint: pIC50
Worth noting: pIC50 values are minus log10 of concentrations stated in mol/L.

CC1(C)OC(=O)C(=Cc2ccc[nH]2)C(=O)O1; 5.13
O=C(Nc1ccc(OC(F)(F)F)cc1)N1CCN(c2ccnc3cc(Cl)ccc23)CC1; 4.99
CN=c1scc(-c2cccs2)n1/N=C/c1ccc(O)c(O)c1O; 4.96
CC(C)(C)c1ccc(Oc2ccc(N)cc2)cc1; 4.86
COc1ccc2c(c1)sc1nc(-c3ccccc3)cn12; 4.69

Data request, read-out pIC50, for O=Cc1ccccc1OCc1ccc2c(c1)OCO2
5.25

Data request, read-out pIC50, for COc1cc(OC)cc(C(=O)Nc2ccc(Nc3ccccc3)cc2)c1
4.56

----------
System: S. cerevisiae tim10 strain, luminescence counterscreen
method: TIM10 strain luminescence inhibitors – S. cerevisiae, uHTS hits, counter-screen for tim23-1 inhibitor project, dose response (AID 504672);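 note: yeast grew roughly 22 hours at 25 °C before the luminescence read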
Let's look at some molecules and their measured IC50.

Consider the worked cases shown below.
O=C(Oc1ccc(=O)n(-c2ccccc2)n1)c1ccc(Cl)cc1; 34.7 µM
N=c1c2c(-c3ccccc3)c(-c3ccccc3)n(Cc3ccco3)c2ncn1Cc1ccco1; 14.6 µM
Cc1ccc2nc(N3CCN(C=O)CC3)nc(-c3ccccc3)c2c1; 9.88 µM
O=C(Nc1ncc([N+](=O)[O-])s1)c1ccc2c(c1)OCO2; 15.8 µM
Nc1ccc(/C=C/C(=O)c2cccs2)cc1; 3.17 µM

Data request, read-out IC50, for O=C(NCc1cccnc1)/C(=C\c1ccc(-c2ccc(Br)cc2)o1)S(=O)(=O)c1ccccc1
5.72 µM

Data request, read-out IC50, for O=C1NC(=S)SC1=C1CCCCCC1
14.1 µM

Data request, read-out IC50, for O=C(COC(=O)CC1CCCC1)Nc1ccc(Cl)cc1
7.89 µM

Data request, read-out IC50, for COc1ccc(NCc2ccc([N+](=O)[O-])s2)cc1
6.42 µM

Data request, read-out IC50, for CCOC(=O)Nc1ccc2c(c1)Nc1ccccc1S2
12.7 µM

Data request, read-out IC50, for O=C(NCc1ccc2c(c1)OCO2)c1c(O)nc2sccn2c1=O
1.63 µM

Data request, read-out IC50, for CC1CCc2c(c3ccccc3n2C(=O)CCl)C1 (stereo not given)
5.12 µM

Data request, read-out IC50, for Cc1ccc(S(=O)(=O)N[C@@H](Cc2ccccc2)C(=O)CCl)cc1
0.64 µM

Data request, read-out IC50, for CC(C)(C)c1csc(NC(=O)c2ccc(Br)o2)n1
16.7 µM

Data request, read-out IC50, for COc1ccc(S(=O)(=O)CC(=O)c2cc3cccc(C)c3oc2=O)cc1
15.4 µM

Data request, read-out IC50, for CCSc1ncc(/C=N/Nc2ccc(Cl)cc2)n1C
10.9 µM

Data request, read-out IC50, for O=C(Nc1cccc(NC(=O)c2cccs2)c1)c1ccc(Br)o1
15 µM

Data request, read-out IC50, for O=C(/C=C\Nc1cccc(F)c1)c1cccs1
16.6 µM

Data request, read-out IC50, for CCOC(=O)c1sc(=NC(=O)c2ccco2)n(C)c1C
46.5 µM

Data request, read-out IC50, for O=C(Nc1ccc(Oc2cccc3ccccc23)cc1)c1ccco1
8.83 µM

----------
System: S. cerevisiae tim10 strain, luminescence counterscreen
method: TIM10 strain luminescence inhibitors – S. cerevisiae, uHTS hits, counter-screen for tim23-1 inhibitor project, dose response (AID 504672);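 note: yeast grew roughly 22 hours at 25 °C before the luminescence read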
Let's look at some compounds and their measured IC50.

Consider the worked cases shown below.
CC(C(Sc1ccccc1N)c1ccccc1)[N+](=O)[O-] (configuration not stated); 5.26 µM
O=c1c(O)c(-c2ccccc2)oc2cc(O)cc(O)c12; 35.5 µM
Cc1ccc(-c2nnc(N3CCN(c4ccccn4)CC3)c3ccccc23)cc1; 13.1 µM
Cn1c(C=O)c(C#Cc2ccccc2)c2ccccc21; 5.53 µM

Data request, read-out IC50, for c1ccc(Nc2nc(-c3ccccc3)nc3ccccc23)cc1
6.7 µM

Data request, read-out IC50, for O=C(Nc1ccc2oc(-c3ccccc3)nc2c1)c1cccnc1
10.8 µM
